Test system: biotinyl-Met-oxazolone
EXPERIMENTAL_PROTOCOL: self-aminoacylation, catalytic enhancement (BMO) (fold over background); higher = more active; k-Seq, kA / k0A0; sequences stand for … in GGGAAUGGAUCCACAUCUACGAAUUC…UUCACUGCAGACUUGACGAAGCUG
Fewer inactive variants are shown than the library holds.
Class key for self-aminoacylation values: class A: < 2; class B: ≥ 2 and < 8; class C: ≥ 8

Some solved entries appear below for comparison.
CUACGUCAAGCAAUCGGUCUG [Fam1A.1 aminoacylation ribozyme variant] ... class A
CUUCACCCAGGUCAUCGGGUG [Fam2.2 aminoacylation ribozyme variant] ... class B

Query block: Consider AUUACUCUGGUCAUCUAGUGA [Fam2.1 aminoacylation ribozyme variant] . To which self-aminoacylation class does it belong?
Result block: class C

Query block: Hello team, could you let me know which band the following sequence falls into: AUUCCCCUAGGGCAUCGGGUG [Fam2.2 aminoacylation ribozyme variant]
Result block: class C

Query block: Bin this entry: AUUACUCUUGUCAUCGAGUGA [Fam2.1 aminoacylation ribozyme variant]
Result block: class B

Query block: Assign a bin to AUUAACUUAGGUCAUCGGGUG [Fam2.2 aminoacylation ribozyme variant]
Result block: class B
